Let's look at some compounds and their measured IC50.
- Tested on: Renin mRNA in As4.1 cells
- test summary: Renin mRNA inhibition in murine juxtaglomerular cell line As4.1
- Assay type: cell-based
- measurement parameters: Mus musculus, 24 h, real time PCR normalized versus β-actin, read-out: Renin mRNA inh.As4.1/wt
Give your result in nM as a bare value.

Completed entries (count: 4):
INSERT INTO assay_data (compound, experimental_target, attribute_measured, test_value) VALUES
  ('C=C1/C(=C\C=C2/CCC[C@]3(C)C(C4(CC#CC(O)(C(F)(F)F)C(F)(F)F)CC4)=CCC23)CC(O)C[C@@H]1O (some centres unmarked) [Compound 4]', 'Renin mRNA in As4.1 cells', 'IC50', 2.99),
  ('C[C@]12CCC/C(=C\C=C3\CC(O)C[C@H](O)C3)C1CC=C2C1(C/C=C\C(O)(C(F)(F)F)C(F)(F)F)CC1 (some centres unmarked) [Compound 7]', 'Renin mRNA in As4.1 cells', 'IC50', 2.58),
  ('C=C1/C(=C\C=C2/CCC[C@]3(C)C(C4(C/C=C\C(O)(C(F)(F)F)C(F)(F)F)CC4)=CCC23)CC(O)C[C@@H]1F (some centres unmarked) [Compound 14]', 'Renin mRNA in As4.1 cells', 'IC50', 6),
  ('C[C@]12CCC/C(=C\C=C3\CC(O)C[C@H](O)C3)C1CC=C2C1(C/C=C/C(O)(C(F)(F)F)C(F)(F)F)CC1 (some centres unmarked) [Compound 5]', 'Renin mRNA in As4.1 cells', 'IC50', 4.4);

// returns reported IC50 for input CC(C)(O)CCCC1(C2=CCC3/C(=C/C=C4/CC(O)C[C@H](O)C4)CCC[C@]23C)CC1 (some centres unmarked) [Compound 9]
8.78
